- Experimental system: rat MCH1 receptor (Rattus norvegicus, UniProt P97639)
- Construct: expressed in transfected cells
- Sequence (P97639 whole entry): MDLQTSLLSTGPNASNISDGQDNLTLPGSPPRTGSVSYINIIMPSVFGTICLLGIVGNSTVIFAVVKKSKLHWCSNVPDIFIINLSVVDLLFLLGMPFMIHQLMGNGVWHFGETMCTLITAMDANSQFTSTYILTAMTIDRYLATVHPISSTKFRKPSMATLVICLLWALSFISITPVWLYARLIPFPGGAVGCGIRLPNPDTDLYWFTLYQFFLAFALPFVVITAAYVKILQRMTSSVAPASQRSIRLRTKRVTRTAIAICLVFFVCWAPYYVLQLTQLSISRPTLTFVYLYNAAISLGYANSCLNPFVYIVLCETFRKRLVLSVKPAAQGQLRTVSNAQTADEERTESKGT
- Run description: Binding affinity (Ki) at the rat MCH1 receptor
- Condition parameters: Table 3c; read-out: rMCH1 Ki
pKi: −log10 of the molar value.
Reported endpoint: pKi

Example compounds with recorded pKi:
| Compound | Experimental system | pKi |
| --- | --- | --- |
| COc1cccc(CC(=O)Nc2cccc(C3CCN(CCCC(=O)c4ccc(Oc5ccccc5)cc4)CC3)c2)c1 | rat MCH1 receptor (Rattus norvegicus, UniProt P97639) | 7.04 |
| CC(=O)Nc1cccc(C2CCN(CCCC(=O)c3ccc(C)c(C)c3)CC2)c1 | rat MCH1 receptor (Rattus norvegicus, UniProt P97639) | 7.05 |
| COC(CCN1CCC(c2cccc(NC(=O)C(C)C)c2)CC1)c1ccc(Cl)cc1 (stereo not shown) | rat MCH1 receptor (Rattus norvegicus, UniProt P97639) | 7.94 |
| CC(=O)Nc1cccc(C2CCN(CCCNC(=O)N3C(=O)OC(C)(C)C3c3ccc(F)c(F)c3)CC2)c1 (stereo not shown) | rat MCH1 receptor (Rattus norvegicus, UniProt P97639) | 7.31 |

[1] CC(C)C(=O)Nc1cccc(C2CCN(CC[C@H](Oc3cccc4ccccc34)c3ccccc3)CC2)c1
[2] COCC1=C(C(=O)OC)[C@H](c2ccc(F)c(F)c2)N(C(=O)NCCCN2CCC(c3cccc(NC(=O)C(C)C)c3)CC2)C(=O)N1
[3] CC(C)C(=O)Nc1cccc(C2CCN(CC[C@@H](Oc3ccc(Cl)c(Cl)c3)c3ccccc3)CC2)c1
Request: Put the entries in order of pKi, starting with the largest number. Please list the labels according to the requested order.
Response: 2, 3, 1
(2: 9.64, 3: 8.30, 1: 6.42)

====

- Experimental system: human Alpha-1a Adrenergic receptor (Homo sapiens, UniProt P35348)
- Construct: expressed in transfected cells
- Sequence (P35348 1-466): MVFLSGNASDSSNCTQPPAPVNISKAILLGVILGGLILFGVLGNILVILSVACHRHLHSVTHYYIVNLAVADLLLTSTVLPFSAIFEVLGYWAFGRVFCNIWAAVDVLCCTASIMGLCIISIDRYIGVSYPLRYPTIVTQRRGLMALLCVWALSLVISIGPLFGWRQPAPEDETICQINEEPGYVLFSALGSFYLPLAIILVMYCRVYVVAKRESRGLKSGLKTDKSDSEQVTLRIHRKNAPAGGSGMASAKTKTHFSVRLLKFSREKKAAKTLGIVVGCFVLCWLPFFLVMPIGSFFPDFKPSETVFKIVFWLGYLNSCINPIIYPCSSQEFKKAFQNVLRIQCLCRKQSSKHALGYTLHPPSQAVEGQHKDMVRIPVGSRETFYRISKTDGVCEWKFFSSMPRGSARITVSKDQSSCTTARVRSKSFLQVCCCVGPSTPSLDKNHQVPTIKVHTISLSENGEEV
- Run description: Binding affinity at the human alpha-1A adrenergic receptor
- Condition parameters: Table 3c; read-out: hAlpha-1a Ki
pKi: −log10 of the molar value.
Reported endpoint: pKi

Worked cases, answers included:
| Molecule | Reported endpoint | Recorded measurement |
| --- | --- | --- |
| CC(=O)c1ccccc1O[C@@H](CCN1CCC(c2cccc(NC(=O)C(C)C)c2)CC1)c1ccccc1 [Example 126] | pKi | 5.82 |
| CC(=O)Nc1cccc(C2CCN(CCCC(=O)c3ccc(C)c(C)c3)CC2)c1 [Example 57] | pKi | 7.31 |
| CC(C)C(=O)Nc1cccc(C2CCN(CC[C@@H](O)c3ccccc3)CC2)c1 [Example 113] | pKi | 5.49 |

[P] CC(C)C(=O)Nc1cccc(C2CCN(CCCC(=O)c3ccc(Oc4ccccc4)cc3)CC2)c1 [Example 82]
[Q] COc1ccc(C(C)=O)cc1O[C@@H](CCN1CCC(c2cccc(NC(=O)C(C)C)c2)CC1)c1ccccc1 [Example 119]
[R] COc1ccc(C(=O)CCCN2CCC(c3cccc(NC(=O)C(C)C)c3)CC2)c(OC)c1 [Example 78]
Request: // sort entries: pKi, high to low Answer with the labels in sequence, matching the requested order.
Response: R, P, Q

====

- Experimental system: rat MCH1 receptor (Rattus norvegicus, UniProt P97639)
- Construct: expressed in transfected cells
- Run description: Binding affinity (Ki) at the rat MCH1 receptor
- Condition parameters: Examples 38-141; read-out: Ki (nM) rMCH1
Reported endpoint: Ki (nM)

| Compound | Experimental system | Unit name | Ki |
| --- | --- | --- | --- |
| O=C(Cc1ccccc1)Nc1cccc(C2CCN(CCCC(=O)c3ccccc3)CC2)c1 [Example 75] | rat MCH1 receptor (Rattus norvegicus, UniProt P97639) | nM | 506 |

[1] CC(C)S(=O)(=O)Nc1cccc(C2CCN(CCCC(=O)c3ccc(Oc4ccccc4)cc3)CC2)c1 [Example 90]
[2] COC(=O)C1=C(C)NC(=O)N(C(=O)NCCCN2CCC(c3cccc(NC(C)=O)c3)CC2)[C@H]1c1ccc(F)c(F)c1 [Example 56]
[3] CC(C)C(=O)Nc1cccc(C2CCN(CC[C@@H](Oc3ccc(Cl)c(Cl)c3)c3ccccc3)CC2)c1 [Example 111]
Request: Parameters: sort_field (Ki), sort_dir (desc). Please list the labels according to the requested order.
Response: 1, 3, 2
(1: 651 nM, 3: 5 nM, 2: 0.26 nM)

====

- Experimental system: rat MCH1 receptor (Rattus norvegicus)
- Construct: expressed in transfected cells
- Run description: Binding affinity (Ki) at the rat MCH1 receptor
- Condition parameters: Table 3c; read-out: rMCH1 Ki
Reported endpoint: Ki (µM)

| Compound | Ki (µM) |
| --- | --- |
| Cc1ccc(C(=O)CCCN2CCC(c3cccc(NS(=O)(=O)C(C)C)c3)CC2)cc1C | 0.615 |
| CC(C)C(=O)Nc1cccc(C2CCN(CC[C@@H](Oc3ccccc3[N+](=O)[O-])c3ccccc3)CC2)c1 | 0.0257 |
| CC(=O)Nc1cccc(C2CCN(CCCNC(=O)N3C(=O)OC[C@@H]3c3cc(F)cc(F)c3)CC2)c1 | 0.0314 |

====

- Experimental system: human Dopamine D2 receptor (Homo sapiens)
- Construct: purchased BioSignal, Inc. (Montreal, Canada)
- Sequence (P14416 whole entry): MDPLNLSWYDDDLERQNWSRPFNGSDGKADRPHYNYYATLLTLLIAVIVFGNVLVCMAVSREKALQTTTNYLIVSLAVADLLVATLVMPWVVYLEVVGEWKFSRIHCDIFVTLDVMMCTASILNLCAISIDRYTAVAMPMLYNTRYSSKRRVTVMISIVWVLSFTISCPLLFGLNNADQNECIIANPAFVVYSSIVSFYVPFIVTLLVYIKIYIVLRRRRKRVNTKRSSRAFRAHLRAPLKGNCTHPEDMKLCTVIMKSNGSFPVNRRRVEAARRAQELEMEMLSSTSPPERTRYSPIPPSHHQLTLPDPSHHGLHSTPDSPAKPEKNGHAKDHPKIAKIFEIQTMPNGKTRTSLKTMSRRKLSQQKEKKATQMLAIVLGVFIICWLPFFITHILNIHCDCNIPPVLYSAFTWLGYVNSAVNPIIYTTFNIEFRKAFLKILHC
- Run description: Binding affinity at the human dopamine D2 receptor
- Condition parameters: Table 3c; read-out: hD2 Ki
Reported endpoint: Ki (nM)

| Compound | Recorded measurement |
| --- | --- |
| COc1ccc(O[C@@H](CCN2CCC(c3cccc(NC(=O)C(C)C)c3)CC2)c2ccccc2)cc1 | 1080 |

[a] COCC1=C(C(=O)OC)C(c2ccc(F)c(F)c2)N(C(=O)NCCCN2CCC(c3cc(F)ccc3OC)CC2)C(=O)N1 (stereo not drawn)
[b] COCC1=C(C(=O)OC)[C@H](c2ccc(F)c(F)c2)N(C(=O)NCCCN2CCC(c3cccc(NC(=O)CC(C)C)c3)CC2)C(=O)N1
Request: Which shows the larger Ki value: a or b ? Kindly give the label for the entry you pick.
Response: b

[a] COC(=O)C1=C(C)NC(=O)N(C(=O)NCCCN2CCC(c3cccc(NC(C)=O)c3)CC2)[C@H]1c1ccc(F)c(F)c1
[b] CC(C)C(=O)Nc1cccc(C2CCN(CC[C@@H](Oc3cc(C(F)(F)F)ccc3F)c3ccccc3)CC2)c1
[c] COCC1=C(C(=O)OC)[C@H](c2ccc(F)c(F)c2)N(C(=O)NCCCN2CCC(c3cccc(N)c3)CC2)C(=O)N1
Request: Returns the items ordered by Ki, from maximum to minimum. Put the labels in the order asked and list them.
Response: a, c, b
(a: 10400 nM, c: 2370 nM, b: 331 nM)

[1] CC(C)C(=O)Nc1cccc(C2CCN(CCCCCCN3C(=O)c4ccccc4C3=O)CC2)c1
[2] CC(=O)Nc1cccc(C2CCN(CCCNC(=O)N3C(=O)OC[C@@H]3c3cc(F)c(F)c(F)c3)CC2)c1
[3] CCOc1ccccc1O[C@@H](CCN1CCC(c2cccc(NC(=O)C(C)C)c2)CC1)c1ccccc1
[4] CC(=O)Nc1cccc(C2CCN(CCCNC(=O)N3C(=O)O[C@H](C)C3c3ccc(F)c(F)c3)CC2)c1 (stereo partly drawn)
Request: Please list these in order of increasing Ki. Thank you! Reply with the labels, ordered as the question asks.
Response: 3, 1, 4, 2

====

- Experimental system: human Alpha-1a Adrenergic receptor (Homo sapiens, UniProt P35348)
- Construct: expressed in transfected cells
- Run description: Binding affinity at the human alpha-1A adrenergic receptor
- Condition parameters: Table 3c; read-out: hAlpha-1a Ki
Reported endpoint: Ki (nM)

Worked examples follow.
| Molecule | Unit name | Ki |
| --- | --- | --- |
| CC(C)C(=O)Nc1cccc(C2CCN(CCCCCN3C(=O)c4ccccc4C3=O)CC2)c1 [Example 95] | nM | 2940 |
| COCC(=O)Nc1cccc(C2CCN(CCCNC(=O)N3C(=O)NC(COC)=C(C(=O)OC)[C@@H]3c3ccc(F)c(F)c3)CC2)c1 [Example 39] | nM | 25.5 |
| CC(C)C(=O)Nc1cccc(C2CCN(CC[C@H](Oc3ccc(-c4ccccc4)cc3)c3ccccc3)CC2)c1 [Example 134] | nM | 1310 |
| COCC1=C(C(=O)OC)[C@H](c2ccc(F)c(F)c2)N(C(=O)NCCCN2CCC(c3cccc(NC(=O)CC(C)C)c3)CC2)C(=O)N1 [Example 42] | nM | 10.9 |

[P] CC(C)C(=O)Nc1cccc(C2CCN(CC[C@@H](Oc3cc(C(F)(F)F)ccc3F)c3ccccc3)CC2)c1 [Example 121]
[Q] CC(=O)Nc1cccc(C2CCN(CCCC(=O)c3ccc(Cl)cc3)CC2)c1 [Example 65]
[R] CC(C)C(=O)Nc1cccc(C2CCN(CC[C@H](Oc3ccc(C(F)(F)F)cc3)c3ccccc3)CC2)c1 [Example 109]
[S] COCC1=C(C(=O)NCCCN2CCC(c3cccc(NC(=O)CC(C)C)c3)CC2)[C@@H](c2ccc(F)c(F)c2)NC(=O)N1 [Example 47]
Request: Arrange by Ki, high to low. Order the labels as requested and list them.
Response: P, S, R, Q
